Target: gamma-secretase (partially purified extract of IMR-32 cell membranes; substrate MBP-C125 Swe fusion protein, cleavage at the Aβ40 site) (Homo sapiens, UniProt P49768)
Construct: a partially purified extract of IMR-32 cell membranes as the gamma-secretase enzyme preparation; endogenous in cells; host or cells: IMR-32 cell membranes, partially purified extract
Assay: Gamma-secretase APP enzyme assay (Example A)
Type: biochemical
Conditions: γAPP IC50 (nM), class symbols; assay described in Example A

| compound | IC50 |
| --- | --- |
| O=S(=O)(c1ccc(C(F)(F)F)nc1)N1C2Cc3n[nH]cc3C1c1c(F)cccc12 (stereo not shown) | < 100 nM |
| Cn1ncc2c1C1Cc3[nH]ncc3C2N1S(=O)(=O)c1ccc(C(F)(F)F)nc1 (racemic) | < 100 nM |
| O=S(=O)(c1ccc(C(F)(F)F)nc1)N1C2Cc3[nH]ncc3C1c1ncc(F)cc12 (single isomer, unassigned) [compound 260] | < 100 nM |
| O=S(=O)(c1ccc(C(F)(F)F)nc1)N1C2Cc3[nH]ncc3C1c1ncc(F)cc12 (single isomer, unassigned) [compound 259] | > 1000 nM |
| O=S(=O)(c1ccc(C(F)(F)F)cc1)N1C2Cc3n[nH]cc3C1c1c(F)cccc12 (stereo not shown) [compound 96] | < 100 nM |
| O=S(=O)(c1ccc(C(F)(F)F)nc1)N1C2Cc3n[nH]cc3C1c1ncsc12 (stereo not shown) [compound 189] | 100 to 499 nM |
| O=S(=O)(c1ccc(C(F)(F)F)nc1)N1C2Cc3n[nH]cc3C1c1ncsc12 (stereo not shown) [compound 188] | > 1000 nM |

###

Biological target: gamma-secretase (partially purified extract of IMR-32 cell membranes; substrate MBP-C125 Swe fusion protein, cleavage at the Aβ40 site) (Homo sapiens)
Construct: a partially purified extract of IMR-32 cell membranes as the gamma-secretase enzyme preparation; endogenous in cells; host or cells: IMR-32 cell membranes, partially purified extract
Experiment: Gamma-secretase APP enzyme assay (Example A)
Type: biochemical
Details: γAPP IC50 (nM), numeric bounds given instead of class symbols; assay described in Example A

| compound | IC50 |
| --- | --- |
| O=S(=O)(c1ccc(C(F)(F)F)nc1)N1C2Cc3n[nH]cc3C1c1c(F)cccc12 (stereo not shown) | > 10 nM |

###

Biological target: gamma-secretase (partially purified extract of IMR-32 cell membranes; substrate MBP-C125 Swe fusion protein, cleavage at the Aβ40 site) (Homo sapiens, UniProt P49768)
Construct: a partially purified extract of IMR-32 cell membranes as the gamma-secretase enzyme preparation; endogenous in cells; host or cells: IMR-32 cell membranes, partially purified extract
Assay: Gamma-secretase APP enzyme assay (Example A)
Format: biochemical
Details: γAPP IC50 (nM), class symbols; assay described in Example A

| compound | IC50 |
| --- | --- |
| O=S(=O)(c1ccc(C(F)(F)F)cc1)N1C2Cc3n[nH]cc3C1c1c(F)cccc12 (single isomer, unassigned) [compound 115] | < 100 nM |
| O=S(=O)(c1ccc(C(F)(F)F)nc1)N1C2Cc3n[nH]cc3C1c1ncsc12 (stereo not shown) [compound 187] | 100 to 499 nM |
| O=S(=O)(c1ccc(C(F)(F)F)nc1)N1C2Cc3[nH]ncc3C1c1ncc(F)cc12 (racemic) [compound 258] | < 100 nM |
| O=S(=O)(c1ccc(C(F)(F)F)cc1)N1C2Cc3n[nH]cc3C1c1c(F)cccc12 (single isomer, unassigned) [compound 114] | 500 to 999 nM |

###

Biological target: gamma-secretase (partially purified extract of IMR-32 cell membranes; substrate MBP-C125 Swe fusion protein, cleavage at the Aβ40 site) (Homo sapiens, UniProt P49768)
Construct: a partially purified extract of IMR-32 cell membranes as the gamma-secretase enzyme preparation; endogenous in cells; host or cells: IMR-32 cell membranes, partially purified extract
Assay: Gamma-secretase APP enzyme assay (Example A)
Format: biochemical
Conditions: class symbols; assay described in Example A; read-out: γAPP IC50
From the text: The gamma-secretase APP enzyme assay was designed to measure the specific proteolytic cleavage of an APP substrate (MBP-C125 Swe fusion protein) at the Aβ40 site. […] This assay involved two steps beginning with the enzymatic reaction generating a cleavage product that was captured with an immobilized antibody specific for the neo-epitope Aβ40 site. The captured cleavage product was then detected in a sandwich ELISA assay with a biotinylated reporter antibody that is specific to Aβ(17-28). […]
pIC50: −log10 of the molar value.

| compound | pIC50 |
| --- | --- |
| O=C1c2[nH]ncc2C2c3c(F)cccc3C1N2S(=O)(=O)c1ccc(Cl)cc1 (stereo not drawn) [compound 242] | > 7.00 |
| O=S(=O)(c1ccc(C(F)(F)F)cc1)N1C2c3cn[nH]c3C(F)C1c1cccc(F)c12 (single isomer, unassigned) [compound 262] | < 6.00 |
| O=S(=O)(c1ccc(C(F)(F)F)cc1)N1C2Cc3[nH]ncc3C1C(c1ccc(F)cc1)C2 (stereo not drawn) | > 7.00 |
| O=S(=O)(c1ccc(C(F)(F)F)nc1)N1C2Cc3n[nH]cc3C1c1cc(F)c(F)cc12 (single isomer, unassigned) [compound 110] | < 6.00 |
| O=S(=O)(c1ccc(F)cc1)N1C2Cc3[nH]ncc3C1c1c(F)cccc12 (racemic) | > 7.00 |
| Cc1nc(C2CC3Cc4[nH]ncc4C(C2)N3S(=O)(=O)c2ccc(C(F)(F)F)cc2)n[nH]1 (racemic) | < 6.00 |
| O=C1c2[nH]ncc2C2c3ccccc3C1N2S(=O)(=O)c1ccc(C(F)(F)F)cc1 (stereo not drawn) [compound 173] | > 7.00 |
| O=S(=O)(c1ccc(C(F)(F)F)nc1)N1C2Cc3[nH]ncc3C1c1cc(F)ccc12 (racemic) [compound 176] | > 7.00 |
| COC(=O)c1cccc2c1C1Cc3[nH]ncc3C2N1S(=O)(=O)c1ccc(C(F)(F)F)nc1 (stereo not drawn) [compound 226] | > 7.00 |
| Cn1nncc1C1CC2Cc3[nH]ncc3C(C1)N2S(=O)(=O)c1ccc(Cl)cc1 (racemic) | > 7.00 |
| COC(=O)CCCNc1ccc(C2CC3Cc4n[nH]cc4C(C2)N3S(=O)(=O)c2ccc(C(F)(F)F)cc2)cc1 (stereo not drawn) | > 7.00 |
| O=C1c2[nH]ncc2C2c3c(F)cccc3C1N2S(=O)(=O)c1ccc(C(F)(F)F)nc1 (stereo not drawn) | > 7.00 |
| O=C1c2n[nH]cc2C2c3cc(F)c(F)cc3C1N2S(=O)(=O)c1ccc(C(F)(F)F)nc1 (stereo not drawn) | > 7.00 |
| CC(=O)c1ccc(C2CC3Cc4[nH]ncc4C(C2)N3S(=O)(=O)c2ccc(C(F)(F)F)cc2)cc1 (racemic) | 6.30 to 7.00 |
| O=C1c2[nH]ncc2C2c3cccc(Cl)c3C1N2S(=O)(=O)c1ccc(C(F)(F)F)nc1 (racemic) | > 7.00 |

###

Tested on: gamma secretase in CHO cells expressing APPSwe, NotchΔE and a Notch responsive luciferase reporter gene (SNC-204B8)
Assay: SNC dual cell assay for simultaneous assay of A-beta reduction and Notch signaling (Example D)
Conditions: ratio of Notch IC50/Aβ EC50 determined as described in Example D (SNC dual cell assay)
reported property: Selectivity Ratio (Notch IC50/Aβ ED50)

| molecule | reported measurement |
| --- | --- |
| O=S(=O)(c1ccc(C(F)(F)F)cc1)N1C2Cc3[nH]ncc3C1CC(c1csnn1)C2 (racemic) | (^++) |

###

Documented pIC50 across a set of compounds
Target: gamma-secretase (partially purified extract of IMR-32 cell membranes; substrate MBP-C125 Swe fusion protein, cleavage at the Aβ40 site) (Homo sapiens, UniProt P49768)
Construct: a partially purified extract of IMR-32 cell membranes as the gamma-secretase enzyme preparation; endogenous in cells; host or cells: IMR-32 cell membranes, partially purified extract
Assay: Gamma-secretase APP enzyme assay (Example A)
Type: biochemical
Conditions: class symbols; assay described in Example A; read-out: γAPP IC50
pIC50: −log10 of the molar value.

| compound | pIC50 |
| --- | --- |
| C=C1c2[nH]ncc2C2c3cccc(Cl)c3C1N2S(=O)(=O)c1ccc(C(F)(F)F)nc1 (centres unmarked) | > 7.00 |
| O=S(=O)(c1ccc(C(F)(F)F)nc1)N1C2c3cn[nH]c3C(F)(F)C1c1cccc(F)c12 (centres unmarked) | > 7.00 |
| O=S(=O)(c1ccc(C(F)(F)F)nc1)N1C2Cc3[nH]ncc3C1c1cc(F)ccc12 (single isomer, unassigned) [compound 179] | 6.00 to 6.30 |
| O=S(=O)(c1ccc(C(F)(F)F)nc1)N1C2Cc3n[nH]cc3C1c1cccc(CO)c12 (centres unmarked) | > 7.00 |
| O=S(=O)(c1ccc(C(F)(F)F)cc1)N1C2Cc3cccc(F)c3C1c1cn[nH]c1C2 (racemic) | > 7.00 |
| O=C(O)COCCNc1ccc(C2CC3Cc4[nH]ncc4C(C2)N3S(=O)(=O)c2ccc(C(F)(F)F)cc2)cc1 (racemic) | > 7.00 |
| O=S(=O)(c1ccc(C(F)(F)F)cc1)N1C2Cc3[nH]ncc3C1c1ccccc12 (racemic) [compound 52] | > 7.00 |
| O=S(=O)(c1ccc(C(F)(F)F)cc1)N1C2Cc3[nH]ncc3C1c1ccccc12 (racemic) [compound 73] | > 7.00 |
| O=S(=O)(c1ccc(C(F)(F)F)nc1)N1C2Cc3[nH]ncc3C1c1cccc(CF)c12 (racemic) | > 7.00 |
| O=S(=O)(c1ccc(C(F)(F)F)nc1)N1C2Cc3ccccc3C1c1c[nH]nc1C2 (centres unmarked) | > 7.00 |
| CC#Cc1ccc2c(c1)[C@@H]1c3cn[nH]c3C[C@@H]2N1S(=O)(=O)c1ccc(C(F)(F)F)nc1 | 6.30 to 7.00 |
| O=S(=O)(c1ccc(Cl)cc1)N1C2Cc3[nH]ncc3C1CC(c1ccncn1)C2 (centres unmarked) | > 7.00 |
| Cc1noc(-c2ccc3c(c2)C2c4cn[nH]c4CC3N2S(=O)(=O)c2ccc(C(F)(F)F)nc2)n1 (centres unmarked) [compound 201] | < 6.00 |
| O=C1c2[nH]ncc2C2c3cccc(F)c3C1N2S(=O)(=O)c1ccc(C(F)(F)F)nc1 (single isomer, unassigned) [compound 193] | 6.00 to 6.30 |
| CC12C(=O)c3[nH]ncc3C(c3ccccc31)N2S(=O)(=O)c1ccc(C(F)(F)F)cc1 (centres unmarked) | > 7.00 |
| O=S(=O)(c1ccc(C(F)(F)F)cc1)N1C2c3cn[nH]c3C(F)C1c1cccc(F)c12 (single isomer, unassigned) [compound 263] | > 7.00 |
| COC(=O)c1ccc2c(c1)C1c3cn[nH]c3CC2N1S(=O)(=O)c1ccc(C(F)(F)F)nc1 (racemic) [compound 194] | < 6.00 |
| O=S(=O)(c1ccc(C(F)(F)F)cc1)N1C2Cc3cccc(F)c3C1Cc1n[nH]cc12 (centres unmarked) [compound 191] | > 7.00 |
| O=S(=O)(c1ccc(C(F)(F)F)nc1)N1C2Cc3[nH]ncc3C1c1nc(C3CC3)ccc12 (centres unmarked) [compound 255] | 6.30 to 7.00 |
| O=S(=O)(c1ccc(Cl)cc1)N1C2Cc3[nH]ncc3C1c1c(F)cccc12 (single isomer, unassigned) [compound 230] | < 6.00 |
| O=S(=O)(c1ccc(C(F)(F)F)nc1)N1C2Cc3[nH]ncc3C1c1cc(-c3ccc(F)cc3)ccc12 (single isomer, unassigned) [compound 244] | < 6.00 |
| O=S(=O)(c1ccc(C(F)(F)F)nc1)N1C2Cc3[nH]ncc3C1c1cccc(Cl)c12 (centres unmarked) [compound 229] | 6.30 to 7.00 |
| O=C1c2n[nH]cc2C2c3ccccc3C1N2S(=O)(=O)c1ccc(C(F)(F)F)nc1 (centres unmarked) | > 7.00 |
| Cc1cc(F)cc2c1C1c3c[nH]nc3CC2N1S(=O)(=O)c1ccc(C(F)(F)F)nc1 (racemic) [compound 151] | > 7.00 |
| O=S(=O)(c1ccc(C(F)(F)F)nc1)N1C2Cc3n[nH]cc3C1c1cccc(F)c12 (single isomer, unassigned) [compound 184] | 6.00 to 6.30 |
| O=S(=O)(c1ccc(C(F)(F)F)nc1)N1C2Cc3n[nH]cc3C1c1cccc(F)c12 (centres unmarked) [compound 183] | > 7.00 |
| O=S(=O)(c1ccc(C(F)(F)F)nc1)N1C2c3c[nH]nc3[C@@H](O)C1c1c(F)cccc12 (some centres unmarked) [compound 240] | 6.30 to 7.00 |
| O=S(=O)(c1ccc(C(F)(F)F)cc1)N1C2Cc3[nH]ncc3C1c1cccc(F)c12 (racemic) | > 7.00 |
| O=S(=O)(c1ccc(C(F)(F)F)cc1)N1C2Cc3[nH]ncc3C1Cc1ccccc12 (racemic) | > 7.00 |
